system: A498 complex spheroids with HUVEC/MSC, growth; test: Anticancer human tumor A498 cell line growth inhibition [AhR]; details: second compound 0.316 µM; first compound 0.3 µM; hits give low values
READOUT NAME: viability, T/C

The following compounds have reported results that may help.
IN: // viability, T/C lookup, key: CCc1c2c(nc3ccc(O)cc13)-c1cc3c(c(=O)n1C2)COC(=O)[C@]3(O)CC + CC(CO)NC(=O)c1cc(-c2ccc(Cl)cc2)nn(-c2cnn(C)c2)c1=O
OUT: 36.7%

IN: // viability, T/C lookup, key: CCN(c1cc(-c2ccc(CN3CCOCC3)cc2)cc(C(=O)NCc2c(C)cc(C)[nH]c2=O)c1C)C1CCOCC1 + CC(CO)NC(=O)c1cc(-c2ccc(Cl)cc2)nn(-c2cnn(C)c2)c1=O
OUT: 93.3%

Next up:
IN: // viability, T/C lookup, key: CCc1c2c(nc3ccc(O)cc13)-c1cc3c(c(=O)n1C2)COC(=O)[C@]3(O)CC + Cc1ccccc1N=Nc1ccc(NC(=O)c2ccnn2C)c(C)c1
OUT: 45%

* * *

tested on: A498 complex spheroids with HUVEC/MSC, growth; assay: Anticancer human tumor A498 cell line growth inhibition [AhR]; details: second compound 3.16 µM; first compound 1 µM; hits give low values;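 also: luminescence signal used as a surrogate for viable cells; seven day exposure starting three days after spheroid seeding; luminescence viability scaled so 100% equals DMSO vehicle wells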
READOUT NAME: viability, T/C (%)
Answers are plain numbers, in %.

The following compounds have reported results that may help.
IN: // viability, T/C lookup, key: COc1ccc([C@@H](O)c2cc(-c3ncnc4cc(N5CCOCC5)ccc34)c(F)cc2Cl)nn1 + CC(CO)NC(=O)c1cc(-c2ccc(Cl)cc2)nn(-c2cnn(C)c2)c1=O
OUT: 20.8

IN: // viability, T/C lookup, key: NS(=O)(=O)OCC1CC(n2ccc3c(NC4CCc5ccccc54)ncnc32)CC1O (stereo not drawn) + Cc1cncc(-c2nc(NCCc3c[nH]c4ccccc34)c3ncn(C(C)C)c3n2)c1
OUT: 18.3

Next:
IN: // viability, T/C lookup, key: Nc1ncn(C2CC(O)C(CO)O2)c(=O)n1 (stereo not drawn) + Cc1cncc(-c2nc(NCCc3c[nH]c4ccccc34)c3ncn(C(C)C)c3n2)c1
OUT: 63.4

* * *

tested on: A498 complex spheroids with HUVEC/MSC, growth; experiment: Anticancer human tumor A498 cell line growth inhibition [AhR]; conditions: second compound 10 µM; first compound 0.0949 µM; active = viability on the fitted dose curve at most 10% of control; inactive = the rest;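 also: luminescence signal used as a surrogate for viable cells; seven day exposure starting three days after spheroid seeding; luminescence viability scaled so 100% equals DMSO vehicle wells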
Respond using exactly one of the listed classes: 1.0 = active, 0.0 = inactive

Reference set (2 entries):
IN: Could you check what this test reported for Nc1ncn(C2CC(O)C(CO)S2)c(=O)n1 (stereo not drawn) + CC(CO)NC(=O)c1cc(-c2ccc(Cl)cc2)nn(-c2cnn(C)c2)c1=O ?
OUT: 0.0

IN: Could you check what this test reported for CCN(c1cc(-c2ccc(CN3CCOCC3)cc2)cc(C(=O)NCc2c(C)cc(C)[nH]c2=O)c1C)C1CCOCC1 + CC(CO)NC(=O)c1cc(-c2ccc(Cl)cc2)nn(-c2cnn(C)c2)c1=O ?
OUT: 0.0

Query compound follows.
IN: Could you check what this test reported for Nc1ncn(C2CC(O)C(CO)S2)c(=O)n1 (stereo not drawn) + Cc1cncc(-c2nc(NCCc3c[nH]c4ccccc34)c3ncn(C(C)C)c3n2)c1 ?
OUT: 1.0

* * *

For each record, write down the corresponding viability, T/C.
tested on: A498 complex spheroids with HUVEC/MSC, growth; assay: Anticancer human tumor A498 cell line growth inhibition [AhR]; conditions: second compound 0.316 µM; first compound 0.0316 µM; hits give low values;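 also: luminescence signal used as a surrogate for viable cells; seven day exposure starting three days after spheroid seeding; luminescence viability scaled so 100% equals DMSO vehicle wells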
Answers are plain numbers, in %.

The following compounds have reported results that may help.
IN: // viability, T/C lookup, key: O=C(C=Cc1cccc(S(=O)(=O)Nc2ccccc2)c1)NO + CC(CO)NC(=O)c1cc(-c2ccc(Cl)cc2)nn(-c2cnn(C)c2)c1=O
OUT: 80.2

IN: // viability, T/C lookup, key: CC1COCCN1c1cc(-c2ccnn2C)c2ccnc(-c3ccn[nH]3)c2n1 (centres undefined) + Cc1cncc(-c2nc(NCCc3c[nH]c4ccccc34)c3ncn(C(C)C)c3n2)c1
OUT: 89

IN: // viability, T/C lookup, key: CC1(C)CCC(CN2CCN(c3ccc(C(=O)NS(=O)(=O)c4ccc(NCC5CCOCC5)c([N+](=O)[O-])c4)c(Oc4cnc5[nH]ccc5c4)c3)CC2)=C(c2ccc(Cl)cc2)C1 + CC(CO)NC(=O)c1cc(-c2ccc(Cl)cc2)nn(-c2cnn(C)c2)c1=O
OUT: 91.1

IN: // viability, T/C lookup, key: COc1ccc([C@@H](O)c2cc(-c3ncnc4cc(N5CCOCC5)ccc34)c(F)cc2Cl)nn1 + Cc1cncc(-c2nc(NCCc3c[nH]c4ccccc34)c3ncn(C(C)C)c3n2)c1
OUT: 89.5

IN: // viability, T/C lookup, key: O=C(c1cc(Cc2n[nH]c(=O)c3ccccc23)ccc1F)N1CCN(C(=O)C2CC2)CC1 + CC(CO)NC(=O)c1cc(-c2ccc(Cl)cc2)nn(-c2cnn(C)c2)c1=O
OUT: 97

IN: // viability, T/C lookup, key: CC1COCCN1c1cc(C2(S(C)(=N)=O)CC2)nc(-c2ccnc3[nH]ccc23)n1 (centres undefined) + Cc1cncc(-c2nc(NCCc3c[nH]c4ccccc34)c3ncn(C(C)C)c3n2)c1
OUT: 94.9

I have 4 compounds here; please give me viability, T/C for each one.
1. Nc1ccn(C2OC(CO)C(O)C2(F)F)c(=O)n1 (centres undefined) + Cc1ccccc1N=Nc1ccc(NC(=O)c2ccnn2C)c(C)c1
2. Nc1ncn(C2CC(O)C(CO)O2)c(=O)n1 (centres undefined) + CC(CO)NC(=O)c1cc(-c2ccc(Cl)cc2)nn(-c2cnn(C)c2)c1=O
3. NS(=O)(=O)OCC1CC(n2ccc3c(NC4CCc5ccccc54)ncnc32)CC1O (centres undefined) + Cc1cncc(-c2nc(NCCc3c[nH]c4ccccc34)c3ncn(C(C)C)c3n2)c1
4. O=C(C=Cc1cccc(S(=O)(=O)Nc2ccccc2)c1)NO + Cc1cncc(-c2nc(NCCc3c[nH]c4ccccc34)c3ncn(C(C)C)c3n2)c1

OUT:
1: 30.9; 2: 86.2; 3: 89.2; 4: 94.5

I have 3 compounds here; please give me viability, T/C for each one.
1. COc1ccc([C@@H](O)c2cc(-c3ncnc4cc(N5CCOCC5)ccc34)c(F)cc2Cl)nn1 + Cc1ccccc1N=Nc1ccc(NC(=O)c2ccnn2C)c(C)c1
2. COc1cc(Nc2ncc3c(n2)-c2ccc(Cl)cc2C(c2c(F)cccc2OC)=NC3)ccc1C(=O)O + CC(CO)NC(=O)c1cc(-c2ccc(Cl)cc2)nn(-c2cnn(C)c2)c1=O
3. COc1cccc2c1C(=O)c1c(O)c3c(c(O)c1C2=O)CC(O)(C(=O)CO)CC3OC1CC(N)C(O)C(C)O1 (centres undefined) + Cc1ccccc1N=Nc1ccc(NC(=O)c2ccnn2C)c(C)c1

OUT:
1. 71.1
2. 70
3. 65.6

I have 4 compounds here; please give me viability, T/C for each one.
1. O=C(c1cc(Cc2n[nH]c(=O)c3ccccc23)ccc1F)N1CCN(C(=O)C2CC2)CC1 + Cc1cncc(-c2nc(NCCc3c[nH]c4ccccc34)c3ncn(C(C)C)c3n2)c1
2. O=C(c1cc(Cc2n[nH]c(=O)c3ccccc23)ccc1F)N1CCN(C(=O)C2CC2)CC1 + Cc1ccccc1N=Nc1ccc(NC(=O)c2ccnn2C)c(C)c1
3. CC[C@@]1(O)C(=O)OCc2c1cc1n(c2=O)Cc2cc3c(CN(C)C)c(O)ccc3nc2-1 + Cc1cncc(-c2nc(NCCc3c[nH]c4ccccc34)c3ncn(C(C)C)c3n2)c1
4. NS(=O)(=O)OCC1CC(n2ccc3c(NC4CCc5ccccc54)ncnc32)CC1O (centres undefined) + CC(CO)NC(=O)c1cc(-c2ccc(Cl)cc2)nn(-c2cnn(C)c2)c1=O

OUT:
[102, 96.3, 83.3, 90.9]

* * *

tested on: A498 complex spheroids with HUVEC/MSC, growth; assay: Anticancer human tumor A498 cell line growth inhibition [AhR]; details: second compound 0.316 µM; first compound 10 µM; hits give low values;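 also: luminescence signal used as a surrogate for viable cells; seven day exposure starting three days after spheroid seeding; luminescence viability scaled so 100% equals DMSO vehicle wells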
For each record, write down the corresponding viability, T/C.
Answers are plain numbers, in %.

IN: // viability, T/C lookup, key: O=C(C=Cc1cccc(S(=O)(=O)Nc2ccccc2)c1)NO + CC(CO)NC(=O)c1cc(-c2ccc(Cl)cc2)nn(-c2cnn(C)c2)c1=O
OUT: 9.41

IN: // viability, T/C lookup, key: COc1cc(Nc2ncc3c(n2)-c2ccc(Cl)cc2C(c2c(F)cccc2OC)=NC3)ccc1C(=O)O + Cc1cncc(-c2nc(NCCc3c[nH]c4ccccc34)c3ncn(C(C)C)c3n2)c1
OUT: 35

IN: // viability, T/C lookup, key: O=C(C=Cc1cccc(S(=O)(=O)Nc2ccccc2)c1)NO + Cc1ccccc1N=Nc1ccc(NC(=O)c2ccnn2C)c(C)c1
OUT: 20.1

Next up:
IN: // viability, T/C lookup, key: O=C(C=Cc1cccc(S(=O)(=O)Nc2ccccc2)c1)NO + Cc1cncc(-c2nc(NCCc3c[nH]c4ccccc34)c3ncn(C(C)C)c3n2)c1
OUT: 13.8
